- Substrate: N[C@@H](CC(=O)O)C(=O)O
- experiment.summary: purified protein
- measurement.setup: co-substrate α-ketoglutarate (fixed, 0.1563–1.25 mM range), 16 µM PLP, 5 mM NAD+, 100 mM potassium phosphate pH 8, 37 °C
value.kind: kcat/Km (M⁻¹ s⁻¹)
Please reply with the bare figure in M⁻¹ s⁻¹ and do not write the unit itself.

// solved cases for kcat/Km follow
protein	units.label	test.result
E. coli aspartate aminotransferase (AAT) (Escherichia coli K-12; K37F/N64T/T43I) (protein, full-length, N-terminal His-tag, expressed in E. coli BL21-Gold (DE3), Ni-NTA purified; 90 kDa homodimer, PLP-dependent) MFENITAAPADPILGLADLFRADERPGKINLGIGVYFDETGKIPVLTSVKKAEQYLLENETTKTYLGIDGIPEFGRCTQELLFGKGSALINDKRARTAQTPGGTGALRVAADFLAKNTSVKRVWVSNPSWPNHKSVFNSAGLEVREYAYYDAENHTLDFDALINSLNEAQAGDVVLFHGCCHNPTGIDPTLEQWQTLAQLSVEKGWLPLFDFAYQGFARGLEEDAEGLRAFAAMHKELIVASSYSKNFGLYNERVGACTLVAADSETVDRAFSQMKAAIRANYSNPPAHGASVVATILSNDALRAIWEQELTDMRQRIQRMRQLFVNTLQEKGANRDFSFIIKQNGMFSFSGLTKEQVLRLREEFGVYAVASGRVNVAGMTPDNMAPLCEAIVAVL	M⁻¹ s⁻¹	33000
E. coli aspartate aminotransferase (AAT) (Escherichia coli K-12; K37F/N64S/T43C) (protein, full-length, N-terminal His-tag, expressed in E. coli BL21-Gold (DE3), Ni-NTA purified; 90 kDa homodimer, PLP-dependent) MFENITAAPADPILGLADLFRADERPGKINLGIGVYFDETGKCPVLTSVKKAEQYLLENETTKSYLGIDGIPEFGRCTQELLFGKGSALINDKRARTAQTPGGTGALRVAADFLAKNTSVKRVWVSNPSWPNHKSVFNSAGLEVREYAYYDAENHTLDFDALINSLNEAQAGDVVLFHGCCHNPTGIDPTLEQWQTLAQLSVEKGWLPLFDFAYQGFARGLEEDAEGLRAFAAMHKELIVASSYSKNFGLYNERVGACTLVAADSETVDRAFSQMKAAIRANYSNPPAHGASVVATILSNDALRAIWEQELTDMRQRIQRMRQLFVNTLQEKGANRDFSFIIKQNGMFSFSGLTKEQVLRLREEFGVYAVASGRVNVAGMTPDNMAPLCEAIVAVL	M⁻¹ s⁻¹	88000
E. coli aspartate aminotransferase (AAT) (Escherichia coli K-12) (protein, full-length, N-terminal His-tag, expressed in E. coli BL21-Gold (DE3), Ni-NTA purified; 90 kDa homodimer, PLP-dependent) MFENITAAPADPILGLADLFRADERPGKINLGIGVYKDETGKTPVLTSVKKAEQYLLENETTKNYLGIDGIPEFGRCTQELLFGKGSALINDKRARTAQTPGGTGALRVAADFLAKNTSVKRVWVSNPSWPNHKSVFNSAGLEVREYAYYDAENHTLDFDALINSLNEAQAGDVVLFHGCCHNPTGIDPTLEQWQTLAQLSVEKGWLPLFDFAYQGFARGLEEDAEGLRAFAAMHKELIVASSYSKNFGLYNERVGACTLVAADSETVDRAFSQMKAAIRANYSNPPAHGASVVATILSNDALRAIWEQELTDMRQRIQRMRQLFVNTLQEKGANRDFSFIIKQNGMFSFSGLTKEQVLRLREEFGVYAVASGRVNVAGMTPDNMAPLCEAIVAVL	M⁻¹ s⁻¹	37000

Would you mind telling me what kcat/Km value was observed for E. coli aspartate aminotransferase (AAT) (Escherichia coli K-12; K37Y/N285S/N64L/T104S/T43I/V35L) (protein, full-length, N-terminal His-tag, expressed in E. coli BL21-Gold (DE3), Ni-NTA purified; 90 kDa homodimer, PLP-dependent) MFENITAAPADPILGLADLFRADERPGKINLGIGLYYDETGKIPVLTSVKKAEQYLLENETTKLYLGIDGIPEFGRCTQELLFGKGSALINDKRARTAQTPGGSGALRVAADFLAKNTSVKRVWVSNPSWPNHKSVFNSAGLEVREYAYYDAENHTLDFDALINSLNEAQAGDVVLFHGCCHNPTGIDPTLEQWQTLAQLSVEKGWLPLFDFAYQGFARGLEEDAEGLRAFAAMHKELIVASSYSKNFGLYNERVGACTLVAADSETVDRAFSQMKAAIRANYSSPPAHGASVVATILSNDALRAIWEQELTDMRQRIQRMRQLFVNTLQEKGANRDFSFIIKQNGMFSFSGLTKEQVLRLREEFGVYAVASGRVNVAGMTPDNMAPLCEAIVAVL ?
22000
